# ASSAY SUMMARY: Inhibition of Yersinia pestis protein tyrosine phosphatase 1B
pIC50: −log10 of the molar value.
ASSAY READOUT: pIC50

{"MOL": "COc1ccc2cc(-c3cn(C[C@H](Cc4c[nH]c5ccccc45)NC(=O)c4cn(-c5ccc(C(=O)C(=O)O)cc5)nn4)nn3)ccc2c1", "ASSAY READOUT": "pIC50", "RECORDED VALUE": 5.24}
{"MOL": "O=C(O)C(=O)c1ccc(-n2cc(-c3cccc(-c4cn(-c5ccc(C(=O)C(=O)O)cc5)nn4)c3)nn2)cc1", "ASSAY READOUT": "pIC50", "RECORDED VALUE": 4.11}
{"MOL": "O=C(O)C(=O)c1ccc(-n2cc(-c3ccc(-c4ccccc4)cc3)nn2)cc1", "ASSAY READOUT": "pIC50", "RECORDED VALUE": 4.08}
{"MOL": "Cc1ccc(S(=O)(=O)c2cn(C[C@H](Cc3c[nH]c4ccccc34)NC(=O)c3cn(-c4ccc(C(=O)C(=O)O)cc4)nn3)nn2)cc1", "ASSAY READOUT": "pIC50", "RECORDED VALUE": 5.13}
{"MOL": "O=C(O)C(=O)c1ccc(-n2cc(C(=O)N[C@H](CO)Cc3c[nH]c4ccccc34)nn2)cc1", "ASSAY READOUT": "pIC50", "RECORDED VALUE": 3.30}
{"MOL": "O=C(O)C(=O)c1ccc(-n2cc(C(=O)N[C@@H](Cc3c[nH]c4ccccc34)Cn3cc(-c4cccc(-c5cn(C[C@H](Cc6c[nH]c7ccccc67)NC(=O)c6cn(-c7ccc(C(=O)C(=O)O)cc7)nn6)nn5)c4)nn3)nn2)cc1", "ASSAY READOUT": "pIC50", "RECORDED VALUE": 5.39}
{"MOL": "O=C(O)C(=O)c1ccc(-n2cc(C(=O)N[C@@H](Cc3c[nH]c4ccccc34)Cn3cc(-c4ccc(-c5cn(C[C@H](Cc6c[nH]c7ccccc67)NC(=O)c6cn(-c7ccc(C(=O)C(=O)O)cc7)nn6)nn5)cc4)nn3)nn2)cc1", "ASSAY READOUT": "pIC50", "RECORDED VALUE": 5.68}
